Source listed as the supplement of paper PMC9112550.

# System: Escherichia coli TOP10
# assayComment: shrunken log2 fold change of peptide-encoding DNA abundance (4.5 h post-induction vs induction); higher = less antimicrobial activity (less host growth inhibition)
# experimentalConditions: time post-induction: 4.5 h; library: site-saturation at positions 5, 18, 19, 20
parameterMeasured: shrunken log2 fold change

Some solved cases for reference:
>  <seqString>
RRIRGRPPRLPRPRPRPDTTPRP

>  <shrunken log2 fold change>
0.903

$$$$
>  <seqString>
RRIRCRPPRLPRPRPRPQNIPRP

>  <shrunken log2 fold change>
-0.237

$$$$
>  <seqString>
RRIRYRPPRLPRPRPRPHIKPRP

>  <shrunken log2 fold change>
-0.887

$$$$

Here is the next item to consider.
[ask] Fill in the recorded shrunken log2 fold change for this sequence, with Escherichia coli TOP10 as test system: RRIRMRPPRLPRPRPRPTKIPRP
[reply] 0.318

* * *

# Tested on: Escherichia coli TOP10
# assayComment: shrunken log2 fold change of peptide-encoding DNA abundance (4.5 h post-induction vs induction); higher = less antimicrobial activity (less host growth inhibition)
# experimentalConditions: time post-induction: 4.5 h; library: site-saturation at positions 5, 18, 19, 20
Mark not fulfilled for shrunken log2 fold change values under -0.0005, and fulfilled for everything at or above.

[ask] Threshold query (shrunken log2 fold change >= -0.0005) on RRIRTRPPRLPRPRPRPFVKPRP
[reply] not fulfilled

[ask] Threshold query (shrunken log2 fold change >= -0.0005) on RRIRHRPPRLPRPRPRPTQEPRP
[reply] not fulfilled

[ask] Threshold query (shrunken log2 fold change >= -0.0005) on RRIRNRPPRLPRPRPRPWNHPRP
[reply] not fulfilled

[ask] Threshold query (shrunken log2 fold change >= -0.0005) on RRIRFRPPRLPRPRPRPERQPRP
[reply] fulfilled

[ask] Threshold query (shrunken log2 fold change >= -0.0005) on RRIRMRPPRLPRPRPRPEPIPRP
[reply] fulfilled

* * *

# Lookup of reported shrunken log2 fold change keyed by entry
# System: Escherichia coli TOP10
# assayComment: shrunken log2 fold change of peptide-encoding DNA abundance (4.5 h post-induction vs induction); higher = less antimicrobial activity (less host growth inhibition)
# experimentalConditions: time post-induction: 4.5 h; library: site-saturation at positions 5, 18, 19, 20

>  <seqString>
RRIRQRPPRLPRPRPRPNYDPRP

>  <testResult>
-0.257

$$$$
>  <seqString>
RRIRMRPPRLPRPRPRPTKRPRP

>  <testResult>
0.901

$$$$
>  <seqString>
RRIRRRPPRLPRPRPRPCRQPRP

>  <testResult>
0.0284

$$$$
>  <seqString>
RRIRIRPPRLPRPRPRPRIMPRP

>  <testResult>
-0.537

$$$$
>  <seqString>
RRIRYRPPRLPRPRPRPRQQPRP

>  <testResult>
0.226

$$$$

Here is the next item to consider.
[ask] What value of measured shrunken log2 fold change is listed for RRIRCRPPRLPRPRPRPLATPRP ?
[reply] 0.146

* * *

# Test system: Escherichia coli TOP10
# assayComment: shrunken log2 fold change of peptide-encoding DNA abundance (4.5 h post-induction vs induction); higher = less antimicrobial activity (less host growth inhibition)
# experimentalConditions: time post-induction: 4.5 h; library: site-saturation at positions 5, 18, 19, 20
Mark false (0) for shrunken log2 fold change values under -0.2, and true (1) for everything at or above.

Known results for sequences:
>  <seqString>
RRIRKRPPRLPRPRPRPAWVPRP

>  <assignedClass>
true (1)

$$$$
>  <seqString>
RRIRYRPPRLPRPRPRPQRPPRP

>  <assignedClass>
true (1)

$$$$
>  <seqString>
RRIRLRPPRLPRPRPRPFFEPRP

>  <assignedClass>
true (1)

$$$$
>  <seqString>
RRIRARPPRLPRPRPRPHTSPRP

>  <assignedClass>
false (0)

$$$$
>  <seqString>
RRIRYRPPRLPRPRPRPTQAPRP

>  <assignedClass>
true (1)

$$$$

Now turn to the next sequence.
[ask] Threshold query (shrunken log2 fold change >= -0.2) on RRIRPRPPRLPRPRPRPQFRPRP
[reply] true (1)

* * *

# Test system: Escherichia coli TOP10
# assayComment: shrunken log2 fold change of peptide-encoding DNA abundance (4.5 h post-induction vs induction); higher = less antimicrobial activity (less host growth inhibition)
# experimentalConditions: time post-induction: 4.5 h; library: site-saturation at positions 5, 18, 19, 20
# Lookup of reported shrunken log2 fold change keyed by entry
Please give the numeric answer without any surrounding text.

>  <seqString>
RRIRNRPPRLPRPRPRPMHFPRP

>  <shrunken log2 fold change>
-0.145

$$$$
>  <seqString>
RRIRRRPPRLPRPRPRPGKQPRP

>  <shrunken log2 fold change>
0.254

$$$$
>  <seqString>
RRIRKRPPRLPRPRPRPVVQPRP

>  <shrunken log2 fold change>
0.242

$$$$
>  <seqString>
RRIRERPPRLPRPRPRPVCNPRP

>  <shrunken log2 fold change>
-0.12

$$$$
>  <seqString>
RRIRGRPPRLPRPRPRPDDNPRP

>  <shrunken log2 fold change>
0.484

$$$$
>  <seqString>
RRIRVRPPRLPRPRPRPKVTPRP

>  <shrunken log2 fold change>
0.0458

$$$$

[ask] What value of measured shrunken log2 fold change is listed for RRIRLRPPRLPRPRPRPDMAPRP ?
[reply] 0.0097

[ask] What value of measured shrunken log2 fold change is listed for RRIRKRPPRLPRPRPRPQYDPRP ?
[reply] -0.212

[ask] What value of measured shrunken log2 fold change is listed for RRIRDRPPRLPRPRPRPEMWPRP ?
[reply] 2.04

[ask] What value of measured shrunken log2 fold change is listed for RRIRVRPPRLPRPRPRPLYLPRP ?
[reply] -0.507

[ask] What value of measured shrunken log2 fold change is listed for RRIRHRPPRLPRPRPRPCGAPRP ?
[reply] 0.0817

[ask] What value of measured shrunken log2 fold change is listed for RRIRHRPPRLPRPRPRPLWPPRP ?
[reply] 0.27

[ask] What value of measured shrunken log2 fold change is listed for RRIRGRPPRLPRPRPRPSHLPRP ?
[reply] -0.158

[ask] What value of measured shrunken log2 fold change is listed for RRIRVRPPRLPRPRPRPQKVPRP ?
[reply] -0.355

[ask] What value of measured shrunken log2 fold change is listed for RRIRPRPPRLPRPRPRPHQAPRP ?
[reply] 0.0618

* * *

# Test system: Escherichia coli TOP10
# assayComment: shrunken log2 fold change of peptide-encoding DNA abundance (4.5 h post-induction vs induction); higher = less antimicrobial activity (less host growth inhibition)
# experimentalConditions: time post-induction: 4.5 h; library: site-saturation at positions 5, 18, 19, 20
parameterMeasured: shrunken log2 fold change
Please give the numeric answer without any surrounding text.

>  <seqString>
RRIRVRPPRLPRPRPRPSVFPRP

>  <experimentalTarget>
Escherichia coli TOP10

>  <shrunken log2 fold change>
-0.126

$$$$

[ask] What value of measured shrunken log2 fold change is listed for RRIRLRPPRLPRPRPRPWQSPRP ?
[reply] 0.0341

[ask] What value of measured shrunken log2 fold change is listed for RRIRCRPPRLPRPRPRPDAKPRP ?
[reply] 0.0864

[ask] What value of measured shrunken log2 fold change is listed for RRIRGRPPRLPRPRPRPERPPRP ?
[reply] 1.28

[ask] What value of measured shrunken log2 fold change is listed for RRIRCRPPRLPRPRPRPAVIPRP ?
[reply] -0.383

* * *

# Tested on: Escherichia coli TOP10
# assayComment: shrunken log2 fold change of peptide-encoding DNA abundance (4.5 h post-induction vs induction); higher = less antimicrobial activity (less host growth inhibition)
# experimentalConditions: time post-induction: 4.5 h; library: site-saturation at positions 5, 18, 19, 20
parameterMeasured: shrunken log2 fold change
Please give the numeric answer without any surrounding text.

>  <seqString>
RRIRLRPPRLPRPRPRPHTPPRP

>  <parameterMeasured>
shrunken log2 fold change

>  <testResult>
-0.295

$$$$
>  <seqString>
RRIRVRPPRLPRPRPRPRQWPRP

>  <parameterMeasured>
shrunken log2 fold change

>  <testResult>
0.236

$$$$
>  <seqString>
RRIRFRPPRLPRPRPRPQRQPRP

>  <parameterMeasured>
shrunken log2 fold change

>  <testResult>
-0.064

$$$$
>  <seqString>
RRIRDRPPRLPRPRPRPGNQPRP

>  <parameterMeasured>
shrunken log2 fold change

>  <testResult>
-0.0686

$$$$
>  <seqString>
RRIRTRPPRLPRPRPRPSGMPRP

>  <parameterMeasured>
shrunken log2 fold change

>  <testResult>
-0.34

$$$$

[ask] What value of measured shrunken log2 fold change is listed for RRIRDRPPRLPRPRPRPINAPRP ?
[reply] 0.00476

* * *

# Tested on: Escherichia coli TOP10;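 note: peptides expressed intracellularly from a pBAD plasmid library in pooled LB shake-flask culture, induced with 0.3% L-arabinose, DNA abundance read by NGS, three biological replicates, DESeq2 with apeglm shrinkage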
# assayComment: shrunken log2 fold change of peptide-encoding DNA abundance (4.5 h post-induction vs induction); higher = less antimicrobial activity (less host growth inhibition)
# experimentalConditions: time post-induction: 4.5 h; library: site-saturation at positions 5, 18, 19, 20
// class assignment uses shrunken log2 fold change with these ranges: b0 = under -0.07, b1 = from -0.07 up to 0.1, b2 = 0.1 and over

Known results for sequences:
>  <seqString>
RRIRRRPPRLPRPRPRPVSPPRP

>  <assignedClass>
b1

$$$$
>  <seqString>
RRIRCRPPRLPRPRPRPFPQPRP

>  <assignedClass>
b0

$$$$
>  <seqString>
RRIRPRPPRLPRPRPRPSWPPRP

>  <assignedClass>
b2

$$$$
>  <seqString>
RRIRHRPPRLPRPRPRPHTAPRP

>  <assignedClass>
b0

$$$$
>  <seqString>
RRIRNRPPRLPRPRPRPDLMPRP

>  <assignedClass>
b2

$$$$
>  <seqString>
RRIRERPPRLPRPRPRPSPLPRP

>  <assignedClass>
b0

$$$$

[ask] Hey, which category is RRIRPRPPRLPRPRPRPSPDPRP in, do you know?
[reply] b2

[ask] Hey, which category is RRIRMRPPRLPRPRPRPRDSPRP in, do you know?
[reply] b2

[ask] Hey, which category is RRIRFRPPRLPRPRPRPPGVPRP in, do you know?
[reply] b2

[ask] Hey, which category is RRIRPRPPRLPRPRPRPDMRPRP in, do you know?
[reply] b2
